- assayed.target: U(702-825) (human, UniProt Q00839)
- Sequence (Q00839 702-825): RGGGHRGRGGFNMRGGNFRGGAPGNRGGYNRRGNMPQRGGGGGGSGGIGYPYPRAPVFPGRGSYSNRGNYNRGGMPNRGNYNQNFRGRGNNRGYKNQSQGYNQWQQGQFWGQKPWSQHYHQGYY
- protocol.text: fluorescence anisotropy
outcome.measure: Kd (nM)
Field: numeric (nM). Do not append units.

{"columns": ["binder", "outcome.measure", "recorded.number"],
 "data": [
  ["Antisense MTRNR2L6 (structured_RNA) RNA: GGCUACACCAUUAGGAUGUCCUGAUCCAACAUCGAGGUCGUAAACCCUAUUGUCAAUAUGGACUCUAGAAUAGGAUUGCGCUGUUAUCCCUAGGGUAACUUGUUCCGUUGAUCAAAUUAUUGGGUCAAUAUAUGUAUAG", "Kd", 450]
]}

Identify Kd associated with the binder Syncrip (structured_RNA) RNA: GAGGGAGGGGAGGGAAGGGAAGGGAAGGGAAGGGGGGGUCACGCGGGGGCGCGCGCGCGCACCGGGAGCGCGCUCGGAGGCGAGUGGAACUGGAUCGGGUUUGCUGCCAGCGGCGUGAGCUUC
70

Indicate its recorded Kd; the binder in question is MTRNR2L6 (structured_RNA) RNA: GCUAUACAUAUAUUGACCCAAUAAUUUGAUCAACGGAACAAGUUACCCUAGGGAUAACAGCGCAAUCCUAUUCUAGAGUCCAUAUUGACAAUAGGGUUUACGACCUCGAUGUUGGAUCAGGACAUCCUAAUGGUGUAGC
220

Please give the documented Kd of Antisense Syncrip (structured_RNA) RNA: GAAGCUCACGCCGCUGGCAGCAAACCCGAUCCAGUUCCACUCGCCUCCGAGCGCGCUCCCGGUGCGCGCGCGCGCCCCCGCGUGACCCCCCCUUCCCUUCCCUUCCCUUCCCUCCCCUCCCUC
570
